- Test system: SR leukemia
- protocol-summary: NCI tumour cell line growth inhibition, 48 h
Reported TGI values follow for various compounds
outcome-measure: TGI

[[record]]
compound = "C=C1CC[C@@H]2C(C)(C)[C@H](O)CC[C@@]2(C)[C@@H]1COc1ccc2ccc(=O)oc2c1"
outcome_measure = "TGI"
recorded_measurement = "> 100 µM"

[[record]]
compound = "CC(C)[C@@H](C)CC[C@@H](C)C1CC=C2[C@@H]3CCC4C[C@@H](O[Si](C)(C)C(C)(C)C)CC[C@]4(C)C3CC[C@@]21C (stereo partly drawn)"
outcome_measure = "TGI"
recorded_measurement = "> 100 µM"

[[record]]
compound = "c1ccc(-c2n(Cc3ccc4ccccc4n3)cc[n+]2Cc2ccc3ccccc3n2)cc1"
outcome_measure = "TGI"
recorded_measurement = "13.2 µM"

[[record]]
compound = "COc1cc(S(=O)(=O)Nc2ccc(-c3csc(N4C(=O)C(C)SC4c4cccc(Oc5ccccc5)c4)n3)cc2)ccc1Cl (stereo not drawn)"
outcome_measure = "TGI"
recorded_measurement = "> 100 µM"

[[record]]
compound = "N/N=C(\\CCN1CCCC1)CC(c1ccccc1)c1c(O)c2ccccc2oc1=O (stereo not drawn)"
outcome_measure = "TGI"
recorded_measurement = "> 100 µM"

[[record]]
compound = "COP(=O)(OC)/C(=C\\C1=CN(C(c2ccccc2)(c2ccccc2)c2ccccc2)CN1)NC=O"
outcome_measure = "TGI"
recorded_measurement = "33.7 µM"

[[record]]
compound = "COc1cc2c[n+](C)c3c4cc(OC)c(OC)cc4c(OCCCCCCCCOc4cc5c6cc(OC)c(OC)cc6c[n+](C)c5c5cc(OC)c(OC)cc45)cc3c2cc1OC"
outcome_measure = "TGI"
recorded_measurement = "> 100 µM"

[[record]]
compound = "COc1ccc2c(c1)c(-c1nonc1-c1cn(C)c3ccccc13)cn2C"
outcome_measure = "TGI"
recorded_measurement = "> 100 µM"

